test system: heart taken from a rabbit; test: Coronaro-dilatory effects in vitro on isolated rabbit heart (Langendorff's technique); details: dose 10 μg/cm^3; duration of the variation in coronary output
MEASURED PARAMETER: Coronary output, Duration in mins. (min)

- Cc1cc(OCCN)c(C2CC3CCC2(C)C3(C)C)cc1C (stereo not shown): 5
- Cc1cc(OCC(O)CNC(C)C)c(C2CC3CC2C(C)C3(C)C)cc1C (stereo not shown): 9
- Cc1cc(OCC(O)CNC(C)C)c(C2CC3CCC2(C)C3(C)C)cc1C (stereo not shown): 12
- Cc1cc(OCC(O)CN)c(C2CC3CCC2(C)C3(C)C)cc1C (stereo not shown): 12
- CC(C)NCC(O)COc1ccccc1C1CC2CCC1(C)C2(C)C (stereo not shown): 4
- CC1(C)C2CCC1(C)C(c1ccccc1OCC(O)CN)C2 (stereo not shown): 12

Provenance of the data: patent US4061777A
